bioavailability values for the molecules below.
# protocol notes: Oral bioavailability in ICR mouse at 1 mg/kg administered as cassette dose by LC-MS/MS analysis
# Format: ADME, organism-based
# assay conditions: in vivo
Kindly write the number and append the unit.

Some molecules with recorded bioavailability:
>  <chemical string>
CCn1cc(C(=O)Nc2ccc3[nH]ncc3c2)c2ncc(-c3ccccc3)cc21

>  <bioavailability>
57.7%

$$$$
>  <chemical string>
CC(C)n1cc(C(=O)Nc2cc3cn[nH]c3cc2F)c2ncc(-c3ccc(N)cc3)cc21

>  <bioavailability>
63.2%

$$$$
>  <chemical string>
Cn1cc(C(=O)Nc2ccc3[nH]ncc3c2)c2ncc(-c3ccccc3)cc21

>  <bioavailability>
39.3%

$$$$

// below: bioavailability requested for another molecule
# get_value(readout='bioavailability', item= CC(C)n1cc(C(=O)Nc2ccc3[nH]ncc3c2)c2ncc(-c3ccccc3)cc21 )
59.8%

====

Examples of compounds with documented inhibition follow.
# measured target: UniProt O00763
# protocol notes: Inhibition of recombinant human ACC2 expressed in Sf9 cells at 10 uM using acetyl Co-A as substrate preincubated for 60 mins followed by substrate addition and measured after 30 mins by RapidFire-Mass spectrometry relative to control
# Sequence (O00763 whole entry, looked up): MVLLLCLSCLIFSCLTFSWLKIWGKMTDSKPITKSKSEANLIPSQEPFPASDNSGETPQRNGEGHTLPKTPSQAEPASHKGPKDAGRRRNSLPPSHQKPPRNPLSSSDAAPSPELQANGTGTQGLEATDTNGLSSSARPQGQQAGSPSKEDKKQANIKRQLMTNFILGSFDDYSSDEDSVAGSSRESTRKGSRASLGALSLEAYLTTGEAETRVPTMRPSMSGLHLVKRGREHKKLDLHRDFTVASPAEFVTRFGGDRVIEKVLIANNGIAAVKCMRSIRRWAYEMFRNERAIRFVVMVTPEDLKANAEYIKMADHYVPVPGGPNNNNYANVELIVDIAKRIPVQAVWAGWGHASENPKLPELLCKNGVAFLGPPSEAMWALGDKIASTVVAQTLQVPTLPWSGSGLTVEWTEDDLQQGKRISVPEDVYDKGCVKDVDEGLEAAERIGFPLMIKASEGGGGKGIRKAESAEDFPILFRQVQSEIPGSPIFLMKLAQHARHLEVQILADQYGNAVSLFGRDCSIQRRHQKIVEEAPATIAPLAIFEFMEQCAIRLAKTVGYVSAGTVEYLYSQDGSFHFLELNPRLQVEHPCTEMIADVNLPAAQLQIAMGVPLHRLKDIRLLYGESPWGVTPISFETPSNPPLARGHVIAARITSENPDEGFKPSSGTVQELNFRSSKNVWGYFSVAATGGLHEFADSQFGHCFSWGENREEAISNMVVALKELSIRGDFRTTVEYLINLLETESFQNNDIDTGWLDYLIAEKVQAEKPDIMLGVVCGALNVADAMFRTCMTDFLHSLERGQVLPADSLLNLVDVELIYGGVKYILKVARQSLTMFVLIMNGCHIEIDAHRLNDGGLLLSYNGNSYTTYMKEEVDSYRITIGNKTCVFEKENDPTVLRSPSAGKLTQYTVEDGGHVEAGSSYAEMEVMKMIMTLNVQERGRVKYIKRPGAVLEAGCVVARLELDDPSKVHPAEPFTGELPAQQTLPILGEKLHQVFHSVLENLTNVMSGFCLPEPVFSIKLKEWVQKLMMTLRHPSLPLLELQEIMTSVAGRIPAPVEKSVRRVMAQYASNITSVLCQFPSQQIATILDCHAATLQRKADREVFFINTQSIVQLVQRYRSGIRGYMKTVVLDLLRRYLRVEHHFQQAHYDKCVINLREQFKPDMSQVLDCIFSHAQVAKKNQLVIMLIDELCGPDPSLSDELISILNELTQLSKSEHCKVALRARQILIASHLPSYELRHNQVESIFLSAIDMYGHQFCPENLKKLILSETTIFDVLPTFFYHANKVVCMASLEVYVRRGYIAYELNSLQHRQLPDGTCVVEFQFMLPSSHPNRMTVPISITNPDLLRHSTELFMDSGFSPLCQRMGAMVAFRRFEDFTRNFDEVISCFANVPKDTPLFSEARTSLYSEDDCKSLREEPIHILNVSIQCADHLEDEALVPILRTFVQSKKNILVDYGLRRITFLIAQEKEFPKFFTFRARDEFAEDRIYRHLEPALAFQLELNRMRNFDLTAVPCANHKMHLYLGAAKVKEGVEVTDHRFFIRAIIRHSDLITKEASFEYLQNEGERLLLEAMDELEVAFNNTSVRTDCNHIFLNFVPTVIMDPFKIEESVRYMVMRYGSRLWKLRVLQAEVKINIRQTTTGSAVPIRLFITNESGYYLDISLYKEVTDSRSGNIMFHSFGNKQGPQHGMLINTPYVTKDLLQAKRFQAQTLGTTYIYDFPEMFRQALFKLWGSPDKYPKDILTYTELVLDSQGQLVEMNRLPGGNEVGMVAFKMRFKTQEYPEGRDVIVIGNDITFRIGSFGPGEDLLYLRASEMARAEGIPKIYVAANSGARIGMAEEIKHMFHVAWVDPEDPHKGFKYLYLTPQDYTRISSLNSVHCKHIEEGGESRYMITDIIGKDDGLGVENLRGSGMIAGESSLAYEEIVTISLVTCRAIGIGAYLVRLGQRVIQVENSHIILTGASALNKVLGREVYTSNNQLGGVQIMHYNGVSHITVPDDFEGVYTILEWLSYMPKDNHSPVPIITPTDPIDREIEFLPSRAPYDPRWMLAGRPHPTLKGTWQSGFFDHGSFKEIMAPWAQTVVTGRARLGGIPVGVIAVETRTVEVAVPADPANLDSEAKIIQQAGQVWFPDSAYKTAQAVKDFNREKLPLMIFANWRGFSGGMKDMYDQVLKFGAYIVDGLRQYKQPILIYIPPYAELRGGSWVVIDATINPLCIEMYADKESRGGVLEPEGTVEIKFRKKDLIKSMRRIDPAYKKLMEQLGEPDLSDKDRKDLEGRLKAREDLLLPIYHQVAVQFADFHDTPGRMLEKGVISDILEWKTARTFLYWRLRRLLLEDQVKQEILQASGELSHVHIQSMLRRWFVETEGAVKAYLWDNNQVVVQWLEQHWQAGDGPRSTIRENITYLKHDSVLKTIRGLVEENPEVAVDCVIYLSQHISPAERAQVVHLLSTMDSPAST
The answer is to be given in %; state only the numeric part.

>  <chemical string>
Cn1cc(C(=O)Nc2ccc3[nH]ncc3c2)c2ncc(-c3ccccc3)cc21

>  <inhibition / %>
83

$$$$
>  <chemical string>
CN(C(=O)c1cn(C)c2cc(-c3ccccc3)cnc12)c1ccc2[nH]ncc2c1

>  <inhibition / %>
6

$$$$
>  <chemical string>
O=C(Nc1ccc2[nH]ncc2c1)c1c[nH]c2cc(-c3ccccc3)cnc12

>  <inhibition / %>
4

$$$$
>  <chemical string>
O=C(Nc1ccc2[nH]ncc2c1)c1c[nH]c2cc(-c3ccccc3)ccc12

>  <inhibition / %>
-8

$$$$

Now, please, on to the next compound.
Return reported inhibition; argument: Cn1cc(C(=O)Nc2ccc3[nH]cnc3c2)c2ncc(-c3ccccc3)cc21
31

====

# protocol notes: AUC (0 to 8 hrs) in ICR mouse at 0.1 mg/kg, iv or 1 mg/kg, po administered as cassette dose by LC-MS/MS analysis
# Type: ADME, organism-based
# assay conditions: in vivo
observation type: AUC(0-t) (ng·h/mL)
Write the value in ng·h/mL as a bare number.

Which AUC(0-t) value is on record for CC(C)n1cc(C(=O)Nc2cc3cn[nH]c3cc2F)c2ncc(-c3ccc(N)cc3)cc21 ?
647

Same again, this time with Cn1cc(C(=O)Nc2ccc3[nH]ncc3c2)c2ncc(-c3ccccc3)cc21
189

Lookup CCn1cc(C(=O)Nc2ccc3[nH]ncc3c2)c2ncc(-c3ccccc3)cc21
653

Also need CC(C)n1cc(C(=O)Nc2ccc3[nH]ncc3c2)c2ncc(-c3ccccc3)cc21 , thanks.
1700

====

The following compounds are listed with their measured solubility values.
# protocol notes: Solubility of the compound in pH 6.8 aqueous buffer by HPLC analysis
# Type: physicochemical
Value expressed in µg/mL; do not type the unit.

>  <chemical string>
Cn1cc(C(=O)Nc2ccc3[nH]ncc3c2)c2ncc(-c3ccccc3)cc21

>  <solubility (µg/mL)>
60

$$$$

May I ask what solubility has been recorded for CC(C)n1cc(C(=O)Nc2ccc3[nH]ncc3c2)c2ncc(-c3ccccc3)cc21 ?
3200

====

The following molecules are shown together with reported IC50 values.
# measured target: Acetyl-CoA carboxylase 1 (Homo sapiens, UniProt Q13085)
# protocol notes: Inhibition of recombinant human ACC1 expressed in Sf9 cells using acetyl Co-A as substrate preincubated for 60 mins followed by substrate addition and measured after 30 mins by RapidFire-Mass spectrometry
Your answer is read as nM, so omit the unit and give the number.

Look over these answered cases.
>  <chemical string>
CC(C)n1cc(C(=O)Nc2ccc3[nH]ncc3c2)c2ncc(-c3ccccc3)cc21

>  <experimental value>
1600

$$$$
>  <chemical string>
Cn1cc(C(=O)Nc2ccc3[nH]ncc3c2)c2ncc(-c3ccccc3)cc21

>  <experimental value>
820

$$$$

Suppose we examine the molecule CC(C)n1cc(C(=O)Nc2ccc3[nH]ncc3c2)c2ncc(-c3ccc(N)cc3)cc21 ; what IC50 value has been reported?
210

Can you handle CCn1cc(C(=O)Nc2ccc3[nH]ncc3c2)c2ncc(-c3ccccc3)cc21 next?
1000

Item: CC(C)n1cc(C(=O)Nc2cc3cn[nH]c3cc2F)c2ncc(-c3ccc(N)cc3)cc21
170

====

# measured target: Acetyl-CoA carboxylase 2 (Homo sapiens, UniProt O00763)
# protocol notes: Inhibition of recombinant human ACC2 expressed in Sf9 cells using acetyl Co-A as substrate preincubated for 60 mins followed by substrate addition and measured after 30 mins by RapidFire-Mass spectrometry
# Sequence (O00763 whole entry): as the sequence (O00763 whole entry, looked up) above
Reported IC50 by item:
Answer with a number only, understood to be in µM.

Examples with answers:
>  <chemical string>
CC(C)n1cc(C(=O)Nc2ccc3[nH]ncc3c2)c2ncc(-c3ccccc3)cc21

>  <measured target>
Acetyl-CoA carboxylase 2 (Homo sapiens, UniProt O00763)

>  <units label>
µM

>  <IC50>
6.4

$$$$
>  <chemical string>
CC(C)n1cc(C(=O)Nc2ccc3[nH]ncc3c2)c2ncc(-c3ccc(N)cc3)cc21

>  <measured target>
Acetyl-CoA carboxylase 2 (Homo sapiens, UniProt O00763)

>  <units label>
µM

>  <IC50>
2.2

$$$$

Consider the compound CC(C)n1cc(C(=O)Nc2cc3cn[nH]c3cc2F)c2ncc(-c3ccc(N)cc3)cc21 and give its measured IC50.
2

Also Cn1cc(C(=O)Nc2ccc3[nH]ncc3c2)c2ncc(-c3ccccc3)cc21 ?
4

// next record CCn1cc(C(=O)Nc2ccc3[nH]ncc3c2)c2ncc(-c3ccccc3)cc21
3.7

====

# measured target: Acetyl-CoA carboxylase 1 (Homo sapiens, UniProt Q13085)
# protocol notes: Inhibition of recombinant human ACC1 expressed in Sf9 cells at 10 uM using acetyl Co-A as substrate preincubated for 60 mins followed by substrate addition and measured after 30 mins by RapidFire-Mass spectrometry relative to control
Overview of recorded inhibition for various compounds
Express it in %; write the number only.

Sample answers from the record:
>  <chemical string>
O=C(Nc1ccc2[nH]ncc2c1)c1c[nH]c2cc(-c3ccccc3)ccc12

>  <experimental value>
-7

$$$$
>  <chemical string>
O=C(Nc1ccc2[nH]ncc2c1)c1c[nH]c2cc(-c3ccccc3)cnc12

>  <experimental value>
45

$$$$
>  <chemical string>
Cn1cc(C(=O)Nc2ccc3c(cnn3C)c2)c2ncc(-c3ccccc3)cc21

>  <experimental value>
26

$$$$
>  <chemical string>
Cn1cc(C(=O)Nc2ccc3[nH]ccc3c2)c2ncc(-c3ccccc3)cc21

>  <experimental value>
69

$$$$
>  <chemical string>
CN(C(=O)c1cn(C)c2cc(-c3ccccc3)cnc12)c1ccc2[nH]ncc2c1

>  <experimental value>
7

$$$$
>  <chemical string>
Cn1cc(C(=O)Nc2ccc3[nH]cnc3c2)c2ncc(-c3ccccc3)cc21

>  <experimental value>
51

$$$$

Here is the next item to consider.
What inhibition value was documented for this compound, Cn1cc(C(=O)Nc2ccc3[nH]ncc3c2)c2ncc(-c3ccccc3)cc21 ?
99

====

# measured target: UniProt:Q13085
# protocol notes: Inhibition of ACC1 in human HCT116 cells assessed as reduction in [14C]acetate uptake preincubated for 60 mins followed by [14C]acetate addition and measured after 2 hrs by top count scintillation counting method
# Assay type: cell-based
Parameter: IC50. Scope: all listed entries.
Answer format: numeric, µM implied, no suffix.

Report IC50 for CCn1cc(C(=O)Nc2ccc3[nH]ncc3c2)c2ncc(-c3ccccc3)cc21 tested on UniProt:Q13085.
0.13

====

# measured target: Acetyl-CoA carboxylase 1 (Homo sapiens, UniProt Q13085)
# protocol notes: Inhibition of ACC1 in human HCT116 cells assessed as reduction in [14C]acetate uptake preincubated for 60 mins followed by [14C]acetate addition and measured after 2 hrs by top count scintillation counting method
# Assay type: cell-based
Below, each of the molecules is paired with its reported pIC50 value.
Hey, just a heads up that pIC50 is the negative log base 10 of the concentration in molar.

>  <chemical string>
CC(C)n1cc(C(=O)Nc2ccc3[nH]ncc3c2)c2ncc(-c3ccc(N)cc3)cc21

>  <pIC50>
6.31

$$$$

Consider the molecule shown here: CC(C)n1cc(C(=O)Nc2cc3cn[nH]c3cc2F)c2ncc(-c3ccc(N)cc3)cc21 What is its recorded pIC50?
6.82

What do you get for Cn1cc(C(=O)Nc2ccc3[nH]ncc3c2)c2ncc(-c3ccccc3)cc21 ?
6.37
